# pIC50 per entry for Human indoleamine 2,3-dioxygenase1 (hIDO1) (Homo sapiens (Human))
pIC50: −log10 of the molar value.

- smiles-record: "Nc1sc2ccc(-c3ccccc3)cc2c1Nc1ccc(F)c(Cl)c1"
  pIC50: "< 6.00"
- smiles-record: "CCOC(=O)Nc1oc2c(-c3cc(C)nc(C)c3)nccc2c1Nc1ccc(F)c(Cl)c1"
  pIC50: "< 6.00"
- smiles-record: "CCOC(=O)Nc1oc2c(-c3ccc(C(N)=O)cc3)nccc2c1Nc1ccc(F)c(Cl)c1"
  pIC50: "< 6.00"
- smiles-record: "Nc1oc2cc([N+](=O)[O-])ccc2c1Nc1ccc(F)c(Cl)c1"
  pIC50: "> 6.70"
- smiles-record: "Nc1oc2cnccc2c1Nc1ccccc1N1CCCCC1"
  pIC50: "< 6.00"
